# maps each entry to its inhibition
experiment: antiviral activity against West Nile virus in cells, dose response, cell-based, EC_1, probe candidates (AID 588371); conditions: West Nile virus-infected cells, antiviral inhibition; at 50 µM (top of the series)
Results filed as inconclusive are left out.
The reply should contain only the number, in %.

Please review the entries below; each comes with its answer.
# input compound: Cc1cnc(NC(=O)CSc2nc3ccccc3c(=O)n2-c2ccccc2)s1 ; wanted: its inhibition
-1.61

O=C(CSc1nc2ccccc2c(=O)n1-c1cc(Cl)cc(Cl)c1)NC1CCc2ccccc21 (stereo not given) , same question.
11.3

Continuing:
Request the reported inhibition associated with O=C(CSc1nc2ccccc2c(=O)n1-c1cc(Cl)cc(Cl)c1)Nc1nccs1
18.5

What would you report for O=C(CSc1nc2cccc(F)c2c(=O)n1-c1ccc(F)c(F)c1)Nc1ccc2c(c1)CCC2 ?
1.72

Same again, this time with O=C(CSc1nc2ccccc2c(=O)n1-c1ccccc1)Nc1nc(-c2ccccc2)cs1
0.7
